The reported numbers originate from patent US12421243B2.

Each record here notes measured Maximum change in isometric force at rear leg (%).
test system: M. quadriceps femoris; test: isometric force measurement of live, anesthetized rat M. quadriceps femoris due to electrical stimulation; type: in vivo; conditions: 6 mg i.p.

Below are worked cases with known answers.
compound	test_system	reported_result
O=C1c2ccncc2N=C2N(c3ccccc3)CCC12O (stereo not shown)	M. quadriceps femoris	25%
O=C1c2ccsc2N=C2N(c3ccc(N4CCOCC4)cc3)CCC12O (stereo not shown)	M. quadriceps femoris	28%
O=C1c2ccncc2N=C2N(c3ccc(OC(F)(F)F)cc3)CCC12O (stereo not shown)	M. quadriceps femoris	40%

GET /value?item= Cc1cc2c(s1)N=C1N(c3ccc(N4CCOCC4)cc3)CCC1(O)C2=O (stereo not shown) &field=Maximum change in isometric force at rear leg (%) returns 42%
